Let's look at some compounds and their measured growth.
System: SK-MEL-2 melanoma
Assay: NCI-60 one-dose screen, 48 h (100 = growth as untreated, 0 = no growth, -100 = all killed)
Details: 10 µM
The panel holds about 83,000 compounds, 20% with a hit somewhere; the sample as a whole holds those more often. Active and inactive are the calls of the source. The calls were made as follows: active = growth percent below 10; inactive = the rest.
parameter.measured: growth

> print(dat)
                                    compound                tgt            result
 1                                OCCn1cccn1  SK-MEL-2 melanoma   118% (inactive)
 2  NS(=O)(=O)c1ccc(N2N=C(c3ccccc3)CCC2=O)cc1  SK-MEL-2 melanoma   107% (inactive)
 3      O=C(O)COc1c(Cl)cc([N+](=O)[O-])cc1Cl  SK-MEL-2 melanoma   101% (inactive)
 4  CCOC(=O)c1cc(C(=O)c2ccc(OC)c(OC)c2)n2c1ccc1ccc3cccnc3c12  SK-MEL-2 melanoma    19% (inactive)
 5  CC(C)=CCC/C(C)=C/CC/C(C)=C/CC/C=C(\C)CC/C=C(\C)CCC(=O)Nc1ccn(C2OC(CO)C(O)C2(F)F)c(=O)n1 (stereo not drawn)  SK-MEL-2 melanoma   -4.27% (active)
 6  Cc1ccc(/C=C/C(=O)C(=O)/C=C/c2ccc(C)cc2)cc1  SK-MEL-2 melanoma   105% (inactive)
 7  COc1cc2cc(Oc3ccc(NC(=O)c4cccc(C(F)(F)F)c4)cc3)c(C)nc2cc1OC  SK-MEL-2 melanoma  38.8% (inactive)
 8  Cc1ccc(/C=C2/C(=O)N(C)c3ccc(S(=O)(=O)Nc4ccc(C(C)(C)C)cc4)cc32)s1  SK-MEL-2 melanoma  94.3% (inactive)
 9                    CN(C)c1nc(N)c2nccnc2n1  SK-MEL-2 melanoma  97.9% (inactive)
10  CC(C)C1=C(O)C2=C(C(=O)C1=O)[C@@]1(C)CCCC(C)(C)[C@@H]1CC2  SK-MEL-2 melanoma  97.7% (inactive)
11  CN(C)CCCOc1cccc(NC2=C(Cl)C(=O)C(Nc3cccc(OCCCN(C)C)c3)=C(Cl)C2=O)c1  SK-MEL-2 melanoma   -65.6% (active)
12  COc1cc(C(=O)n2nc(-c3cc(OC)c(OC)c(OC)c3)nc2N)cc(OC)c1OC  SK-MEL-2 melanoma  91.2% (inactive)
13  Clc1ccc(C2=NN=C3C(Cc4ccccc4)=Nc4ccccc4N3C2)cc1  SK-MEL-2 melanoma   105% (inactive)
